Molecular target: CD28 (Homo sapiens, UniProt P10747)
Assay: Jurkat/IL2 + CHO/OKT3 +/- PD-L1 reporter assay: PD-L1-dependent CD28 costimulation
Format: cell-based
Parameters: host or cells: Jurkat cells expressing an IL-2-luciferase reporter
Conditions: Table E22; Jurkat/IL2 + CHO/OKT3/PD-L1; 5.0 nM
assay-endpoint: Fold Increase over WT CD80-IgV-Fe (fold)
Give bare numbers, in fold.

Quick one: give me Fold Increase over WT CD80-IgV-Fe for each item below, same order please.
1. H18Y/A26E/E35D/M47L (protein) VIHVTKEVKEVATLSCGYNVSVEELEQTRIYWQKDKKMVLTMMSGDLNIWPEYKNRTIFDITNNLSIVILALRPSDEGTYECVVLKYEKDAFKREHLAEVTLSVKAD
2. E35D/M47L/A71G/D90G (protein) VIHVTKEVKEVATLSCGHNVSVEELAQTRIYWQKDKKMVLTMMSGDLNIWPEYKNRTIFDITNNLSIVILGLRPSDEGTYECVVLKYEKGAFKREHLAEVTLSVKAD
3. H18Y/E35D/A71G/D90G (protein) VIHVTKEVKEVATLSCGYNVSVEELAQTRIYWQKDKKMVLTMMSGDMNIWPEYKNRTIFDITNNLSIVILGLRPSDEGTYECVVLKYEKGAFKREHLAEVTLSVKAD
4. H18Y/A26E/V68M/A71G (protein) VIHVTKEVKEVATLSCGYNVSVEELEQTRIYWQKEKKMVLTMMSGDMNIWPEYKNRTIFDITNNLSIMILGLRPSDEGTYECVVLKYEKDAFKREHLAEVTLSVKAD
5. A26E/E35D/M47L/D90G (protein) VIHVTKEVKEVATLSCGHNVSVEELEQTRIYWQKDKKMVLTMMSGDLNIWPEYKNRTIFDITNNLSIVILALRPSDEGTYECVVLKYEKGAFKREHLAEVTLSVKAD
6. H18Y/A26E/M47L/A71G (protein) VIHVTKEVKEVATLSCGYNVSVEELEQTRIYWQKEKKMVLTMMSGDLNIWPEYKNRTIFDITNNLSIVILGLRPSDEGTYECVVLKYEKDAFKREHLAEVTLSVKAD
7. M47L/V68M/A71G/D90G (protein) VIHVTKEVKEVATLSCGHNVSVEELAQTRIYWQKEKKMVLTMMSGDLNIWPEYKNRTIFDITNNLSIMILGLRPSDEGTYECVVLKYEKGAFKREHLAEVTLSVKAD

A:
[3.10, 2.01, 3.81, 1.20, 2.16, 2.84, 1.98]

Quick one: give me Fold Increase over WT CD80-IgV-Fe for each item below, same order please.
1. H18Y/A26E/V68M/D90G (protein) VIHVTKEVKEVATLSCGYNVSVEELEQTRIYWQKEKKMVLTMMSGDMNIWPEYKNRTIFDITNNLSIMILALRPSDEGTYECVVLKYEKGAFKREHLAEVTLSVKAD
2. A26E/M47L/A71G/D90G (protein) VIHVTKEVKEVATLSCGHNVSVEELEQTRIYWQKEKKMVLTMMSGDLNIWPEYKNRTIFDITNNLSIVILGLRPSDEGTYECVVLKYEKGAFKREHLAEVTLSVKAD

A:
[2.90, 2.12]
